# measuredTarget: Dual specificity protein kinase CLK4 (Homo sapiens)
# procedureText: qHTS Assay for Inhibitors of CDC-like Kinase 4 (Kinase-Glo Assay) (AID 1770); also: nearly all actives have a fitted effect of over 65% in size
# experimentalSetup: recombinant Clk4, Kinase-Glo ATP depletion luminescence; series mostly up to 66.7 µM
Results filed as inconclusive are left out. Activity calls are given as the source filed them. Calls follow the shape of the dose curve; as a rule, active = well fitted inhibition curve with a large enough effect; inconclusive = small, poorly fitted or top-dose-only effect; inactive = flat fitted curve, though single readings scatter.
Outcome codes: Yes for active, No for inactive

> print(dat)
                                 smilesinput                            measuredtarget  labelclass
 1  COc1ccc(Oc2ncc3nc(-c4cn(C)c5ccccc45)c(=O)n(C)c3n2)cc1  Dual specificity protein kinase CLK4 (Homo sapiens)          No
 2  CN(C)c1ncc2nc(-c3ccccc3)c(=O)n(CCC#N)c2n1  Dual specificity protein kinase CLK4 (Homo sapiens)          No
 3  CCNc1ncc2nc(-c3ccc(OC)cc3)c(=O)n(Cc3ccc(F)cc3)c2n1  Dual specificity protein kinase CLK4 (Homo sapiens)          No
 4   COc1cccc(-c2ccc3ncnc(NCCNC(C)=O)c3c2)c1  Dual specificity protein kinase CLK4 (Homo sapiens)         Yes
 5  CN(C)c1ncc2nc(-c3ccc(F)cc3)c(=O)n(CCc3ccccc3)c2n1  Dual specificity protein kinase CLK4 (Homo sapiens)          No
 6     CC(=O)NCCNc1ncnc2ccc(-c3ccccc3Cl)cc12  Dual specificity protein kinase CLK4 (Homo sapiens)         Yes
 7  COc1ccc(CNc2ccnc(-c3c(C)noc3C)n2)c(OC)c1  Dual specificity protein kinase CLK4 (Homo sapiens)          No
 8     CN(Cc1ccco1)c1ncncc1-c1ccccc1C(F)(F)F  Dual specificity protein kinase CLK4 (Homo sapiens)          No
 9  CCNc1ncc2nc(-c3ccc(F)cc3)c(=O)n(C[C@H]3CCCO3)c2n1  Dual specificity protein kinase CLK4 (Homo sapiens)          No
10  O=c1c(-c2ccccc2)nc2cnc(Oc3cccc(Cl)c3)nc2n1C1CC1  Dual specificity protein kinase CLK4 (Homo sapiens)          No
11  COc1ncc2nc(-c3cn(C)c4ccccc34)c(=O)n(CCc3ccccc3)c2n1  Dual specificity protein kinase CLK4 (Homo sapiens)          No
12     CN(C)c1cc(-c2cccc(NS(C)(=O)=O)c2)ncn1  Dual specificity protein kinase CLK4 (Homo sapiens)          No
13         Cc1noc(C)c1-c1nccc(N2CCN(C)CC2)n1  Dual specificity protein kinase CLK4 (Homo sapiens)          No
14  COc1ncc2nc(-c3cn(C)c4ccccc34)c(=O)n(C[C@H]3CCCO3)c2n1  Dual specificity protein kinase CLK4 (Homo sapiens)          No
15  COCCn1c(=O)c(-c2cccs2)nc2cnc(N3CCOCC3)nc21  Dual specificity protein kinase CLK4 (Homo sapiens)          No
16     Clc1ccccc1-c1nc(NCc2cccnc2)c2ccccc2n1  Dual specificity protein kinase CLK4 (Homo sapiens)         Yes
17  COc1cccc(Nc2ncc3ncc(=O)n(Cc4cccs4)c3n2)c1  Dual specificity protein kinase CLK4 (Homo sapiens)         Yes
18  CCNc1ncc2nc(-c3cc(F)cc(F)c3)c(=O)n(CCC#N)c2n1  Dual specificity protein kinase CLK4 (Homo sapiens)         Yes
19  COc1cccc(-c2nc(NCc3ccccc3OC)c3ccccc3n2)c1  Dual specificity protein kinase CLK4 (Homo sapiens)          No
20                CNc1nc(-c2ccoc2)nc2ccccc12  Dual specificity protein kinase CLK4 (Homo sapiens)          No
21   NC(=O)c1ccccc1-c1nc(-n2ccnc2)c2ccccc2n1  Dual specificity protein kinase CLK4 (Homo sapiens)          No
22  N#CCCn1c(=O)c(-c2cccs2)nc2cnc(Nc3ccccc3)nc21  Dual specificity protein kinase CLK4 (Homo sapiens)          No
23    O=c1c(-c2cc(F)cc(F)c2)nc2cncnc2n1C1CC1  Dual specificity protein kinase CLK4 (Homo sapiens)          No
24  CN(C)C(=O)c1ccc(-c2nccc(Nc3ccc(F)cc3)n2)cc1  Dual specificity protein kinase CLK4 (Homo sapiens)          No
25   O=c1c(-c2ccc(F)cc2)nc2cncnc2n1-c1ccccc1  Dual specificity protein kinase CLK4 (Homo sapiens)          No
26       COc1cccc(-c2nccc(NCc3ccccc3OC)n2)c1  Dual specificity protein kinase CLK4 (Homo sapiens)         Yes
27  COc1ccc(-n2c(=O)c(-c3ccc(Cl)cc3)nc3cnc(N(C)C)nc32)cc1  Dual specificity protein kinase CLK4 (Homo sapiens)          No
28  Cc1cnc(CNc2ncnc3ccc(-c4ccc5c(c4)OCO5)cc23)cn1  Dual specificity protein kinase CLK4 (Homo sapiens)         Yes
29  c1ccc(CNc2nc(-c3ccc4c(c3)OCO4)nc3ccccc23)cc1  Dual specificity protein kinase CLK4 (Homo sapiens)          No
